measurement.target: human PTGES (Homo sapiens (Human), UniProt O14684)
Sequence (O14684 whole entry): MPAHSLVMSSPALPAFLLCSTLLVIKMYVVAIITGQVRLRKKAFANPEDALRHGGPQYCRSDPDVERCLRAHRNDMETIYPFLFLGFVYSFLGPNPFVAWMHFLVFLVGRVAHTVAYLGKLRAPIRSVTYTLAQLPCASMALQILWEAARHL
procedure.summary: Human PTGES biochemical enzyme inhibition assay (conversion of PGH2 to PGE2, TR-FRET)
conditions.used: Enzymatic conversion of PGH2 to PGE2; read-out: Human PTGES IC50
IC50 by entry:
Answer by giving the amount and then stating its unit.

Look over these answered cases.
{"columns": ["compound", "result"],
 "data": [
  ["Cc1ncc(-c2ccc(C(C(=O)Nc3cccc(CCC(=O)O)c3C)C3CCCC3)cc2Cl)cc1Cl (racemic)", "198 nM"],
  ["Cc1ncc(-c2ccc(C(C(=O)Nc3cccc(C(C)CC(=O)O)c3C)C3CCCC3)cc2F)cc1Cl (single isomer, unassigned; stereoisomer 2) [Example 122]", "22.8 nM"],
  ["Cc1c(NC(=O)C(c2ccc(-c3cncc(C(F)(F)F)c3)c(F)c2)C2CCCC2)cccc1C(C)CC(=O)O (mixture of isomers) [Example 115]", "18.5 nM"],
  ["Cc1cncc(-c2ccc(C(C(=O)Nc3cccc(CCC(=O)O)c3C)C3CCCC3)cc2)c1 (racemic)", "161 nM"],
  ["Cc1ccc(-c2ccc(C(C(=O)Nc3cccc(CC(C)C(=O)O)c3C)C3CCCC3)cc2)cn1 (stereo not shown)", "433 nM"]
]}

Query: IC50; subject: Cc1c(CCC(=O)O)cccc1NC(=O)C(c1ccc(-c2cncc(C(F)(F)F)c2)cc1)C1CCC1 (racemic) [Example 54]
27.3 nM

Query: IC50; subject: Cc1c(NC(=O)C(c2ccc(-c3cncc(Cl)c3)cc2)C2CCCC2)cccc1C(CC(=O)O)C1CC1 (mixture of isomers)
54.4 nM

Query: IC50; subject: CCOc1cncc(-c2ccc(C(C(=O)Nc3cccc(CCC(=O)O)c3C)C3CCCC3)cc2F)c1 (racemic)
55.3 nM

Query: IC50; subject: Cc1c(CCC(=O)O)cccc1NC(=O)C(c1ccc(-c2cncc(CC(F)(F)F)c2)c(F)c1)C1CCCC1 (single isomer, unassigned; (-))
74.7 nM

Query: IC50; subject: Cc1c(CCC(=O)O)cccc1NC(=O)[C@@H](c1ccc(-c2cncc(CC(F)(F)F)c2)cc1)C1CCCC1
60.1 nM

Query: IC50; subject: Cc1ncc(-c2cc(F)c(C(C(=O)Nc3cccc(CCC(=O)O)c3C)C3CCCC3)cc2F)cc1Cl (racemic)
66.4 nM

* * *

measurement.target: human PTGES (Homo sapiens (Human), UniProt O14684)
procedure.summary: Human PTGES biochemical enzyme inhibition assay (conversion of PGH2 to PGE2, TR-FRET)
conditions.used: Enzymatic conversion of PGH2 to PGE2; read-out: Human PTGES IC50
pIC50: −log10 of the molar value.
pIC50 below 7 gives condition not met; pIC50 at or above it gives condition met.

The following compounds have reported results that may help.
{"columns": ["compound", "class.name"],
 "data": [
  ["Cc1c(CCC(=O)O)cccc1NC(=O)C(c1ccc(-c2ccc(C(F)(F)F)nc2)cc1)C1CCCC1 (single isomer, unassigned; (-)) [Example 5]", "condition not met"],
  ["Cc1c(NC(=O)C(c2ccc(-c3cncc(Cl)c3)cc2)C2CCC2)cccc1C(C)CC(=O)O (single isomer, unassigned; stereoisomer 2) [Example 137]", "condition not met"],
  ["Cc1ncc(-c2ccc(C(C(=O)Nc3cccc(CCC(=O)O)c3C)C3CCC3)cc2)cc1Cl (racemic)", "condition met"]
]}

Alright, here's another compound for you.
Check the entry Cc1c(CCC(=O)O)cccc1NC(=O)C(c1ccc(-c2cncc(C(F)(F)F)c2)c(F)c1)C1CCC1 (single isomer, unassigned; (-)) : does pIC50 equal or exceed 7?
condition met

* * *

measurement.target: human PTGES (Homo sapiens (Human))
procedure.summary: Human PTGES biochemical enzyme inhibition assay (conversion of PGH2 to PGE2, TR-FRET)
conditions.used: Enzymatic conversion of PGH2 to PGE2; read-out: Human PTGES IC50
pIC50: −log10 of the molar value.
pIC50 below 6 gives no; pIC50 at or above it gives yes.

Check the entry COCc1cncc(-c2ccc(C(C(=O)Nc3cccc(CCC(=O)O)c3C)C3CCCC3)cc2)c1 (racemic) [Example 10] : does pIC50 equal or exceed 6?
yes

Check the entry Cc1c(CC(C)C(=O)O)cccc1NC(=O)C(c1ccc(-c2cncc(OC(F)F)c2)cc1)C1CCCC1 (stereo not shown) [Example 80] : does pIC50 equal or exceed 6?
yes

Check the entry Cc1c(NC(=O)C(c2ccc(-c3cncc(Cl)c3)c(F)c2)C2CCCC2)cccc1C(C)CC(=O)O (single isomer, unassigned; stereoisomer 3) [Example 128] : does pIC50 equal or exceed 6?
no

Check the entry Cc1ncc(-c2ccc(C(C(=O)Nc3cccc(CC(C)C(=O)O)c3C)C3CCCC3)cc2)cc1Cl (single isomer, unassigned; stereoisomer 1) [Example 83] : does pIC50 equal or exceed 6?
no

* * *

measurement.target: human PTGES (Homo sapiens (Human))
procedure.summary: Human PTGES biochemical enzyme inhibition assay (conversion of PGH2 to PGE2, TR-FRET)
conditions.used: Enzymatic conversion of PGH2 to PGE2; read-out: Human PTGES IC50
pIC50 by entry:
Scale: pIC50 equals -log10([C]), with [C] in mol/L.

Look over these answered cases.
{"columns": ["compound", "recorded.number"],
 "data": [
  ["Cc1c(NC(=O)C(c2ccc(-c3cncc(C(F)(F)F)c3)c(F)c2)C2CCC2)cccc1C(C)CC(=O)O (single isomer, unassigned; stereoisomer 2) [Example 148]", 7.62],
  ["CCc1cncc(-c2ccc(C(C(=O)Nc3cccc(C(CC(=O)O)C4CC4)c3C)C3CCCC3)cc2)c1 (mixture of isomers)", 7.53]
]}

// moving on: another record for pIC50
Query: pIC50; subject: Cc1c(CCC(=O)O)cccc1NC(=O)C(c1ccc(-c2cncc(F)c2)cc1)C1CCC1 (racemic)
6.32

* * *

IC50 by entry:
measurement.target: human PTGES (Homo sapiens (Human), UniProt O14684)
procedure.summary: Human PTGES biochemical enzyme inhibition assay (conversion of PGH2 to PGE2, TR-FRET)
conditions.used: Enzymatic conversion of PGH2 to PGE2; read-out: Human PTGES IC50
Description: Human PTGES Biochemical Enzyme Inhibition Assay: PTGES (Microsomal prostaglandin E synthase 1) is an enzyme that converts prostaglandin H2 (PGH2) to prostaglandin E2 (PGE2) in the presence of reduced glutathione (GSH). Recombinant proteins (human isoforms) of PTGES containing a FLAG tag, expressed in baculovirus infected insect cells (Hi-5) and purified by affinity chromatography was used as enzyme in the assay. Substrate was prostaglandin H2 (Cayman Chemicals). […]
Express your answer in nM, writing the number without its unit.

{"columns": ["molecule", "measured.metric", "unit.string", "recorded.number"],
 "data": [
  ["Cc1cc(-c2ccc(C(C(=O)Nc3cccc(C(C)CC(=O)O)c3C)C3CCCC3)cc2)cnc1C (mixture of isomers)", "IC50", "nM", 35.6],
  ["Cc1c(NC(=O)C(c2ccc(-c3cncc(Cl)c3)cc2)C2CCC2)cccc1C(C)CC(=O)O (single isomer, unassigned; stereoisomer 1) [Example 136]", "IC50", "nM", 12.7]
]}

Query: IC50; subject: COc1ncccc1-c1ccc(C(C(=O)Nc2cccc(CCC(=O)O)c2C)C2CCCC2)cc1 (racemic)
2550

Query: IC50; subject: CCC(CC(=O)O)c1cccc(NC(=O)C(c2ccc(-c3cncc(CC(C)C)c3)c(F)c2)C2CCCC2)c1C (single isomer, unassigned)
6.82

Query: IC50; subject: CCc1cncc(-c2ccc(C(C(=O)Nc3cccc(CCC(=O)O)c3C)C3CCC3)cc2F)c1 (single isomer, unassigned; (-))
35

Query: IC50; subject: Cc1c(NC(=O)C(c2ccc(-c3cncc(C(F)(F)F)c3)c(F)c2)C2CCCC2)cccc1C(C)CC(=O)O (single isomer, unassigned; stereoisomer 1) [Example 116]
3.49

Query: IC50; subject: Cc1c(CCC(=O)O)cccc1NC(=O)C(c1ccc(-c2ccc(F)nc2)cc1)C1CCCC1 (racemic)
552

Query: IC50; subject: Cc1cc(C(C(=O)Nc2cccc(CCC(=O)O)c2C)C2CCCC2)c(Cl)cc1-c1cncc(C(F)(F)F)c1 (racemic)
1240

Query: IC50; subject: O=C(O)CCc1cccc(NC(=O)[C@@H](c2ccc(-c3cncc(C(F)(F)F)c3)cc2)C2CCCC2)c1C(F)(F)F
258

Query: IC50; subject: Cc1c(CCC(=O)O)cccc1NC(=O)C(c1ccc(-c2cncc(OC(C)C)c2)c(F)c1)C1CCCC1 (single isomer, unassigned; (-))
30.2

Query: IC50; subject: Cc1c(CCC(=O)O)cccc1NC(=O)C(c1ccc(-c2cncc(C(F)F)c2)c(F)c1)C1CCCC1 (racemic)
42.9

Query: IC50; subject: Cc1c(NC(=O)C(c2ccc(-c3cncc(Cl)c3)c(F)c2)C2CCC2)cccc1C(C)CC(=O)O (single isomer, unassigned; stereoisomer 3) [Example 152]
914
